Tested on: SW-620 colon
protocol_text: NCI-60 one-dose screen, 48 h (100 = growth as untreated, 0 = no growth, -100 = all killed)
experimental_context: 10 µM unless noted
Description: Growth inhibition of the SW-620 human tumor cell line is measured as a screen for anti-cancer activity. Cells are grown in 96 well plates and exposed to the test compound for 48 hours. Compounds are tested at a single concentration, which is 10^-5 M for most compounds. The reported endpoint is percent growth (GI% or GIPRCNT), where numbers from 0 - 100% represent growth inhibition, and numbers from -100% - 0 represent cell death. For example, a value of 40 represents 60% growth inhibition. […]
This is part of a sample that, as a whole, favours compounds with a hit. Of some 83,000 tested, about 20% had one in any assay.
# key: entry, value: growth
quantity_name: growth (%)

- CN1CCN(c2ccc(Nc3nc(NCCCNS(=O)(=O)c4ccc(Cl)cc4)c4sccc4n3)cc2)CC1: 20.7
- CNC(=O)c1cc(Oc2ccc3c(c2)sc2nc(-c4ccc(N(C)C)cc4)cn23)ccn1: 27.9
- C#Cc1nc(/C=C\CCCCCCC(=O)NO)cs1: 23.9
- CCCc1[nH]c(-c2cc(N)ccc2Cl)c2c1C(=O)CCCC2: 105
- CCOC(=O)c1c(NCC(=O)Nc2cccc([N+](=O)[O-])c2)sc(C(C)=O)c1C: 3.65
- Brc1cc(-c2cc(-c3ccc4c(c3)OCCO4)[nH]n2)cs1: 36.7
- CC(C)(O)c1cncc(-c2ccc3ncc(C#N)c(N4CCc5cc(F)c(Cl)cc54)c3c2)c1: 26.6

---

Tested on: MCF7 breast
protocol_text: NCI-60 one-dose screen, 48 h (100 = growth as untreated, 0 = no growth, -100 = all killed)
experimental_context: 10 µM unless noted
The panel holds about 83,000 compounds, 20% with a hit somewhere; the sample as a whole holds those more often.
So basically every entry gets a class from its growth, ranges being b0 (below 10%), b1 (10% to below 70%), b2 (70% or more)

* CCCCSC1=C(Cl)CN(c2ccc(Cl)cc2)C1=O | b1
* N#Cc1c(-c2cccs2)c(C#N)c(=O)n(Cc2nc3ccccc3[nH]2)c1N | b1
* Cn1cc(-c2nnc(N)nc2-c2c[nH]c3ccc(Br)cc23)c2cc(Br)ccc21 | b2
* CN1CCN(c2ccc(Nc3nc(NCCNS(=O)(=O)c4ccccc4)c4sccc4n3)cc2)CC1 | b2
* CN1c2ccccc2Sc2cc(/C=N/Nc3ccnc4cc(Cl)ccc34)ccc21 | b1
* CN1CCN(CCCCCC(=O)Nc2nc(-c3cccc(NS(=O)(=O)c4cccc5c(N(C)C)cccc45)c3)cs2)CC1 | b1
* CN1CCC[C@]2(C)[C@H]3CC[C@@H]4[C@@H]5[C@H]6OC[C@@]5(CCC6(C)C)CC[C@@]4(C)[C@]3(C)CC[C@H]2C1(C)C | b0
* CC(Nc1c(C#N)cnc2ccc(-c3cncc(O)c3)cc12)c1ccccc1 (stereo unspecified) | b0
* CN1CCN(Cc2ccc(NC(=O)c3cncc(C#Cc4cnc5ccc(OCC6COC6)nn45)c3)cc2C(F)(F)F)CC1 | b0
* Nc1nc(=O)n([C@H]2C[C@H](O)[C@@H](CO)O2)cc1C=O | b2
* O=C(CSc1nc2ccccc2c(=O)n1-c1ccccc1)Nc1ccc(S(=O)(=O)Nc2nccs2)cc1 | b1
* CS(=O)(=O)c1nccc(-c2c(-c3cccc(OCc4ccc(Cl)c(C(F)(F)F)c4)c3)nc3sccn23)n1 | b0
* COc1ccc([C@H]2C(=O)N(c3cc(OC)c(OC)c(OC)c3)[C@@H]2c2ccc(OC)c(O)c2)cc1 | b1
* CC1=C(C)C(=O)C(Nc2ccc(C)cc2)=C(Br)C1=O | b2
* NC(=O)c1ncn2c(=O)n(CCF)nnc12 | b1
